Tested on: mouse long-term hematopoietic stem cells
Experiment: Reproducibility and concentration dependence test: 1-week culture of sorted Hoxb5-tri-mCherry mouse long-term hematopoietic stem cells, flow cytometry
Format: cell-based
Conditions: Table 4; compound 0.3 μM; day 7 of culture; n=2
experimentalEndpoint: KLS-positive rate (%)
Answers are plain numbers, in %.

For every item in the list below, what is its measured KLS-positive rate?
1. C[C@@H]1CC[C@H]2[C@@H](C)C(=O)O[C@@H]3O[C@@]4(C)CC[C@@H]1[C@]32O4
2. C[C@H]1[C@@H](c2ccccc2)O[C@@H]2O[C@@]3(C)CC[C@H]4[C@H](C)CC[C@@H]1[C@@]24OO3
3. C[C@@H]1CC[C@H]2[C@@H](C)C(=O)O[C@@H]3O[C@@]4(C)CC[C@@H]1[C@]32OO4 [Example 1-33, artemisinin, reference compound]
4. COCCO[C@H]1O[C@@H]2O[C@@]3(C)CC[C@H]4[C@H](C)CC[C@@H]([C@H]1C)[C@@]24OO3
5. C[C@H]1[C@@H](OCc2ccccc2)O[C@@H]2O[C@@]3(C)CC[C@H]4[C@H](C)CC[C@@H]1[C@@]24OO3
6. C[C@H]1[C@H](n2cc(-c3ccccc3)nn2)O[C@@H]2O[C@@]3(C)CC[C@H]4[C@H](C)CC[C@@H]1[C@@]24OO3
7. C[C@H]1[C@H](C(N)=O)O[C@@H]2O[C@@]3(C)CC[C@H]4[C@H](C)CC[C@@H]1[C@@]24OO3

[28.4, 50.0, 11.2, 15.4, 0.0, 31.1, 11.6]
